B1: VH:VL chains; a variant is named by its letters at X, in order (parent)
chain 1: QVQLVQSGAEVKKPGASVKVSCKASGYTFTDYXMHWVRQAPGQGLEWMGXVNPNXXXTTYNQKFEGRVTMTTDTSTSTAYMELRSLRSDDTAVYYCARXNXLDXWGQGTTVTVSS
chain 2: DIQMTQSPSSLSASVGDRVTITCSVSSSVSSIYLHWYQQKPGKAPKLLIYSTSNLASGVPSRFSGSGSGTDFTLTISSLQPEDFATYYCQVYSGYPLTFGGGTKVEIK

Variants of: B1
Experiment: yeast display scFab, FACS + sequencing
observation-type: non-specific binding call

Example entries and their recorded answers appear below.
SEGRGDGA : no binding
VTGTGAGV : no binding
VRRTDFVA : binds
VKGKGASA : binds
YRKGSSVS : binds

**Q:** Could you share which non-specific binding call value was measured for `VTGTGSSA` ?
**A:** no binding

**Q:** Which non-specific binding call is listed for `YRKRTFGA` ?
**A:** binds

**Q:** Form field: reported non-specific binding call of `FRTRDFLV`
**A:** binds

**Q:** What value of non-specific binding call has been reported for the following variant? `YRGRGVAV`
**A:** binds

**Q:** Bench note: what non-specific binding call did `YRTRSAVY` show?
**A:** binds

# credit: the emibetuzumab library of Makowski et al. (2022)
